Test system: Liver microsomes
ASSAY REMARKS: Metabolic stability in human liver microsomes assessed as compound remaining after 10 mins
Format: ADME, Microsome
TEST CONTEXT: microsomes, 10 min
ASSAY READOUT: Stability

{"COMPOUND": "N#Cc1cccc(C2(CC(=O)O)C3CC4CC(C3)CC2C4)c1 (centres undefined)", "TARGET DESC": "Liver microsomes", "Stability": "87%"}
{"COMPOUND": "COC12CC3CC(C1)C(CC(=O)O)(c1ccc(F)cc1)C(C3)C2 (centres undefined)", "TARGET DESC": "Liver microsomes", "Stability": "100%"}
{"COMPOUND": "O=C(O)CC1(Cc2ccccc2)C2CC3CC(C2)CC1C3 (centres undefined)", "TARGET DESC": "Liver microsomes", "Stability": "100%"}

Continue with the compound presented below.
Enquiry: Recall the recorded Stability for CC1(O)C2CC3CC(C2)C(CC(=O)O)(c2ccc(F)cc2)C1C3 (centres undefined) with Liver microsomes and state it.
Return: 100%
